assay: Oral bioavailability in Balb/c mouse at 25 mg/kg measured by LC-MS/MS analysis; format: ADME, organism-based; conditions: in vivo
readout_name: bioavailability (%)
Give the number; % is assumed, so skip it.

Query: Requested field: bioavailability. Item: C[C@H]1c2ccc(C(=O)NCc3c(F)cc(F)cc3F)cc2N(Cc2c(F)cccc2Cl)C(=O)N1C
Result: 44

---

assay: AUC in Balb/c mouse at 25 mg/kg, iv measured by LC-MS/MS analysis; format: ADME, organism-based; design: dose 25 mg/kg; conditions: in vivo
readout_name: AUC (ng·h/mL)
Give the number; ng·h/mL is assumed, so skip it.

Query: Requested field: AUC. Item: C[C@H]1c2ccc(C(=O)NCc3c(F)cc(F)cc3F)cc2N(Cc2c(F)cccc2Cl)C(=O)N1C
Result: 10900

---

experiment: Half life in monkey at 2.5 mg/kg, iv measured by LC-MS/MS analysis; type: ADME, organism-based, Macaca mulatta; conditions: rhesus monkey, in vivo
readout_name: half-life (h)
Give the number; h is assumed, so skip it.

Query: Requested field: half-life. Item: C[C@H]1c2ccc(C(=O)NCc3c(F)cc(F)cc3F)cc2N(Cc2c(F)cccc2Cl)C(=O)N1C
Result: 7.1

---

target: Stimulator of interferon genes protein (Homo sapiens, UniProt Q86WV6); experiment: Agonist activity against human STING H232 variant transfected in HEK-293T cells co-expressing ISRE.ISG54 incubated for 18 hrs by luciferase reporter gene assay; format: cell-based
Sequence (Q86WV6 whole entry, looked up, stated change not applied): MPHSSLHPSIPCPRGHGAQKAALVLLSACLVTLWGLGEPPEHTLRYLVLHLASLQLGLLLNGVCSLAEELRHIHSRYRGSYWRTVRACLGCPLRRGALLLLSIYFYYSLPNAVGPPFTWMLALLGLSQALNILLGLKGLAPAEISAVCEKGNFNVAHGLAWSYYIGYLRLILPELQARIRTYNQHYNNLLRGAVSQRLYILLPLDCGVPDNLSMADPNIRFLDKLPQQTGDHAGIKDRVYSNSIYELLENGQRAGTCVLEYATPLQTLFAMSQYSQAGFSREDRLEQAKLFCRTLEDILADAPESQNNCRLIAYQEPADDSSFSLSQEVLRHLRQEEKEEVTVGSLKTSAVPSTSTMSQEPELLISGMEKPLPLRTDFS
readout_name: pEC50
Formally, pEC50 is defined as -log10 of the concentration c, with c in mol/L.

Query: Requested field: pEC50. Item: C[C@H]1c2ccc(C(=O)NCc3c(F)cc(F)cc3F)cc2N(Cc2c(F)cccc2Cl)C(=O)N1C
Result: 7.23

---

experiment: Cmax/C0 in Balb/c mouse at 25 mg/kg, po measured by LC-MS/MS analysis; type: ADME, organism-based; design: route oral, dose 25 mg/kg; settings: in vivo
readout_name: Cmax (ng/mL)
Give the number; ng/mL is assumed, so skip it.

Query: Requested field: Cmax. Item: C[C@H]1c2ccc(C(=O)NCc3c(F)cc(F)cc3F)cc2N(Cc2c(F)cccc2Cl)C(=O)N1C
Result: 2480

---

system: HEK-293T; assay: Agonist activity against human STING R232H variant transfected in HEK-293T cells co-expressing ISRE.ISG54 at 5 uM by luciferase reporter gene assay relative to control; assay type: cell-based
Calls of active or inactive are those of the source. No cut-off for these calls is given here.
readout_name: Activity

In [3]: df
Out[3]:
                                   compound   reading
0  CC1c2ccc(C(=O)NCc3c(F)cc(F)cc3F)cc2N(Cc2ccc(F)cc2Cl)C(=O)N1C (stereo not drawn)       25%
1  C[C@H]1c2ccc(C(=O)NCc3c(F)cc(F)cc3F)cc2N(Cc2c(Cl)c[nH]c(=O)c2F)C(=O)N1C       16%
2  Cc1cc(CN2C(=O)N(C)Cc3ccc(C(=O)NCc4c(F)cc(F)cc4F)cc32)nn1C       14%
3  CN1Cc2ccc(C(=O)NCc3ccc(C(F)(F)F)nc3)cc2N(Cc2c(F)cccc2Cl)C1=O  inactive
4  O=C(NCc1c(F)cc(F)cc1F)c1ccc2c(c1)N(Cc1cc(F)cc(F)c1)C(=O)N(C1CC1)C2       13%

Query: Quick check: Activity on HEK-293T, item Cc1ccc(CNC(=O)c2ccc3c(c2)N(Cc2cc(F)cc(F)c2)C(=O)N(C)C3)o1 ?
Result: 16%

Query: Same for CN1Cc2ccc(C(=O)NCc3cccc(N4CCCC4=O)c3)cc2N(Cc2c(F)cccc2Cl)C1=O
Result: inactive

Query: Same for CN1Cc2ccc(C(=O)NCc3cccc(-c4ncco4)c3)cc2N(Cc2c(F)cccc2Cl)C1=O
Result: inactive
